Exercise: for every item that follows, state its recorded GI50.
System: UO-31
assay.comment: NCI tumour cell line growth inhibition, 48 h
Active and inactive are the calls of the source. Rule as the data show it: active = GI50 up to about 1.1 µM and inactive = higher.

# annotated cases, reported GI50 shown
molecule: Cc1nc2ccc(C(F)(F)F)cc2nc1Nc1ccc(Cl)c(Cl)c1
recorded.result: 12.2 µM (inactive)
//
molecule: Cc1c2n(c(=O)[nH]c1=O)C1OC(CO)C(O2)C1O (stereo not given)
recorded.result: > 100 µM (inactive)
//
molecule: c1csc(-c2cc(-c3cccs3)c(-c3cccs3)s2)c1
recorded.result: > 100 µM (inactive)
//
molecule: COc1ccc(CCN2C(=O)C(=O)C(C(=O)c3ccccc3)C2c2ccccc2)cc1OC (stereo not given)
recorded.result: > 100 µM (inactive)
//
molecule: CC(C)[Si]1(C(C)C)OCC2OC(n3c(C(=O)c4ccccc4)cc(=O)[nH]c3=O)CC2O[Si](C(C)C)(C(C)C)O1 (stereo not given)
recorded.result: 2.47 µM (inactive)
//
molecule: O=C(O)C(Cc1cccs1)C(=O)O
recorded.result: > 100 µM (inactive)

Hello, I would appreciate it if you could give GI50 for each entry below.
1. COc1ccc(NC2Oc3cc4c(cc3C(c3cc(OC)c(O)c(OC)c3)C2C)OCO4)cc1 (stereo not given)
2. N#CCCOc1cccc(C2(N3CCCCC3)CCCCC2)c1

Result string:
1: 5.97 µM (inactive); 2: > 100 µM (inactive)

Hello, I would appreciate it if you could give GI50 for each entry below.
1. COC(=O)C1[C@@H](C(=O)OC)C12C=Cc1ccccc1C=C2 (stereo not given in full)
2. CCCCCC[N+](C)(C)Cc1ccc(C[N+](C)(C)CCCCCC)cc1

Result string:
1: > 100 µM (inactive); 2: 8.43 µM (inactive)

Origin of measurements: ChEMBL document CHEMBL1201862
